From: patent US20230406935A1

tested.target: T1, Cynomolgus PD-L1 expressed on HEK 293 cells (cynomolgus, UniProt Q9NZQ7 19-290 (human entry))
T1 construct: also called cell-expressed cynomolgus PD-L1
T1 sequence (Q9NZQ7 other isoform, or with tags, fused parts or gaps limits assumed): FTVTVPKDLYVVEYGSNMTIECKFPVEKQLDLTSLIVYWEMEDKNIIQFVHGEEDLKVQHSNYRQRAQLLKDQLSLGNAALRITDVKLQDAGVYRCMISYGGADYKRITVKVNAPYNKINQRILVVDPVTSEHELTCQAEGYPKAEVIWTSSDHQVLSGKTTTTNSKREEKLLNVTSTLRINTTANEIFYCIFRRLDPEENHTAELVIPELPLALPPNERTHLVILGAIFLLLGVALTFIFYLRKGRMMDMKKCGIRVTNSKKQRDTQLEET
test.summary: flow cytometry, HEK293 cells overexpressing the target, anti-human Fc 488
pKd: −log10 of the molar value.
Classify as follows. Reported pKd greater than or equal to 9: Criterion met. Reported pKd below: Criterion not met.

Solved cases (2 shown):
Ask: Tell me whether pKd is at least 9 here: Fcab FS17-33-289 (designed binder) TCPPCPAPELLGGPSVFLFPPKPKDTLMISRTPEVTCVVVDVSHEDPEVKFNWYVDGVEVHNAKTKPREEQYNSTYRVVSVLTVLHQDWLNGKEYKCKVSNKALPAPIEKTISKAKGQPREPQVYTLPPSRDESGYWVSLTCLVKGFYPSDIVVEWESNGEPQYWAKTTPPVLDSDGSFFLYSKLTVSNWRWQLDDFSCSVMHEALHNHYTQKSLSLSPGK
Result: Criterion met

Ask: Tell me whether pKd is at least 9 here: Fcab FS17-33-288 (designed binder) TCPPCPAPELLGGPSVFLFPPKPKDTLMISRTPEVTCVVVDVSHEDPEVKFNWYVDGVEVHNAKTKPREEQYNSTYRVVSVLTVLHQDWLNGKEYKCKVSNKALPAPIEKTISKAKGQPREPQVYTLPPSRDESGYWVSLTCLVKGFYPSDIVVEWESNGEPQYWAKTTPPVLDSDGSFFLYSKLTVSNWRWQIDDFSCSVMHEALHNHYTQKSLSLSPGK
Result: Criterion not met

Consider now this further binder.
Ask: Tell me whether pKd is at least 9 here: Fcab FS17-33-296 (designed binder) TCPPCPAPELLGGPSVFLFPPKPKDTLMISRTPEVTCVVVDVSHEDPEVKFNWYVDGVEVHNAKTKPREEQYNSTYRVVSVLTVLHQDWLNGKEYKCKVSNKALPAPIEKTISKAKGQPREPQVYTLPPSRDESGYWVSLTCLVKGFYPSDIVVEWESNGEPQYWAKTTPPVLDSDGSFFLYSKLTVSNWRWQVDDFSCSVMHEALHNHYTQKSLSLSPGK
Result: Criterion met
